melting point by entry:
Structures can show the parent of a compound that is named as a salt.

Below, 2 molecules whose answers are already recorded.
| molecule | melting point |
| --- | --- |
| N#Cc1ccccc1N1CCN(CCCCCC(=O)NC2CCCc3ccccc32)CC1 (stereo not drawn) (as salt: HCl) (hydrate or solvate) | 175 to 178 °C |
| COc1ccc2c(c1)C(NC(=O)CCCCCN1CCN(c3ccccc3OC)CC1)CCC2 (stereo not drawn) (as salt: HCl) | 175 to 178 °C |

Query: melting point; subject: CC(=O)c1ccccc1N1CCN(CCCCCC(=O)NC2CCCc3ccccc32)CC1 (stereo not drawn) (as salt: HCl) (hydrate or solvate) 136 to 139 °C

Values were extracted from patent US7488730B2.
